test system: G401; experiment: relative viability vs DMSO control (72 h) (fraction); higher = more viable cells; conditions: 10 µM
measured-endpoint: relative viability

[[record]]
molecule = "Cc1ccc(Nc2nccc(N(C)c3ccc4c(C)n(C)nc4c3)n2)cc1S(N)(=O)=O"
measured_endpoint = "relative viability"
reported_value = 0.449

[[record]]
molecule = "COCCNc1cc(NC(=O)N2CCCc3cc(CN4CCN(C)CC4=O)c(C=O)nc32)ncc1C#N"
measured_endpoint = "relative viability"
reported_value = 0.867

[[record]]
molecule = "O=S(=O)(c1cccc2cnccc12)N1CCCNCC1"
measured_endpoint = "relative viability"
reported_value = 1

[[record]]
molecule = "O=C(Nc1ccc(OC(F)(F)Cl)cc1)c1cnc(N2CC[C@@H](O)C2)c(-c2cc[nH]n2)c1"
measured_endpoint = "relative viability"
reported_value = 0.831


###

tested on: HT1080; experiment: relative viability vs DMSO control (72 h) (fraction); higher = more viable cells; settings: 0.01372 µM
measured-endpoint: relative viability

[[record]]
compound = "C[C@H](Nc1ncnc2nc[nH]c12)c1cc2cccc(Cl)c2c(=O)n1-c1ccccc1"
reported_value = 1.08

[[record]]
compound = "COc1cc(CCc2cc(NC(=O)c3ccc(N4CC(C)NC(C)C4)cc3)n[nH]2)cc(OC)c1 (stereo unspecified)"
reported_value = 1.06

[[record]]
compound = "CNC(=O)c1ccccc1Sc1ccc2c(/C=C/c3ccccn3)n[nH]c2c1"
reported_value = 1.13

[[record]]
compound = "CCC(=O)N1CC[C@H](Nc2ncnc3c2CN(c2cnc(OC)c(C(F)(F)F)c2)CC3)C1"
reported_value = 1.05

[[record]]
compound = "Cc1cc2cc(Oc3ccnc(Nc4cccc(CS(=O)(=O)NCCN(C)C)c4)n3)ccc2[nH]1"
reported_value = 1.03

[[record]]
compound = "CN1CCN(c2ccc(C(=O)Nc3n[nH]c4ccc(Cc5cc(F)cc(F)c5)cc34)c(NC3CCOCC3)c2)CC1"
reported_value = 1.08


###

test system: KHOS-NP; test: relative viability vs DMSO control (72 h) (fraction); higher = more viable cells; details: 0.04115 µM
measured-endpoint: relative viability

[[record]]
compound = "Cc1cccc(-c2nn3c(c2-c2ccnc4ccc(C(N)=O)cc24)CCC3)n1"
measured_endpoint = "relative viability"
reported_value = 1.07

[[record]]
compound = "CCN1C(=O)N(c2c(F)c(OC)cc(OC)c2F)Cc2cnc3[nH]c(CN4CCOCC4)cc3c21"
measured_endpoint = "relative viability"
reported_value = 1.06

[[record]]
compound = "CC[C@@H]1CN(C(=O)NCC(F)(F)F)C[C@@H]1c1cnc2cnc3[nH]ccc3n12"
measured_endpoint = "relative viability"
reported_value = 1.09

[[record]]
compound = "CC(C)(O)CNc1nc(Nc2ccnc(C(F)(F)F)c2)nc(-c2cccc(C(F)(F)F)n2)n1"
measured_endpoint = "relative viability"
reported_value = 1.08

[[record]]
compound = "COc1cc(Nc2ncc(F)c(Nc3ccc4c(n3)N(COP(=O)(O)O)C(=O)C(C)(C)O4)n2)cc(OC)c1OC"
measured_endpoint = "relative viability"
reported_value = 1.09

[[record]]
compound = "COC(=O)[C@@]1(O)C[C@H]2O[C@]1(C)n1c3ccccc3c3c4c(c5c6ccccc6n2c5c31)C(=O)NC4 [K-252a]"
measured_endpoint = "relative viability"
reported_value = 1.07

[[record]]
compound = "CNC(=O)c1ccccc1Sc1ccc2c(/C=C/c3ccccn3)n[nH]c2c1"
measured_endpoint = "relative viability"
reported_value = 1.11

[[record]]
compound = "COc1cc(OC)c(/C=C/S(=O)(=O)Cc2ccc(OC)c(NCC(=O)O)c2)c(OC)c1"
measured_endpoint = "relative viability"
reported_value = 1.11

[[record]]
compound = "O=C(Nc1nc2cccc(-c3ccc(CN4CCS(=O)(=O)CC4)cc3)n2n1)C1CC1"
measured_endpoint = "relative viability"
reported_value = 1.1

[[record]]
compound = "C[C@]12O[C@H](C[C@]1(O)CO)n1c3ccccc3c3c4c(c5c6ccccc6n2c5c31)CNC4=O"
measured_endpoint = "relative viability"
reported_value = 1.08

[[record]]
compound = "O=c1sn(-c2cccc3ccccc23)c(=O)n1Cc1ccccc1"
measured_endpoint = "relative viability"
reported_value = 1.11

[[record]]
compound = "Cc1cc2cc(Oc3ccnc(Nc4cccc(CS(=O)(=O)NCCN(C)C)c4)n3)ccc2[nH]1"
measured_endpoint = "relative viability"
reported_value = 1.02

[[record]]
compound = "CCc1cnn2c(NCc3ccc[n+]([O-])c3)cc(N3CCCC[C@H]3CCO)nc12"
measured_endpoint = "relative viability"
reported_value = 0.183

[[record]]
compound = "COC(=O)N[C@@H](C)CNc1nccc(-c2cn(C(C)C)nc2-c2cc(Cl)cc(NS(C)(=O)=O)c2F)n1"
measured_endpoint = "relative viability"
reported_value = 0.99

[[record]]
compound = "COCCNc1cc(NC(=O)N2CCCc3cc(CN4CCN(C)CC4=O)c(C=O)nc32)ncc1C#N"
measured_endpoint = "relative viability"
reported_value = 1.04

[[record]]
compound = "Clc1ccc(Nc2nnc(Cc3ccncc3)c3ccccc23)cc1"
measured_endpoint = "relative viability"
reported_value = 1.05

[[record]]
compound = "CCC(=O)N1CC[C@H](Nc2ncnc3c2CN(c2cnc(OC)c(C(F)(F)F)c2)CC3)C1"
measured_endpoint = "relative viability"
reported_value = 1.07

[[record]]
compound = "N#CC1(c2ccc(NC(=O)c3cccnc3NCc3ccncc3)cc2)CCCC1"
measured_endpoint = "relative viability"
reported_value = 1.08


All values here come from the supplement of paper PMC10883282.
